Give measured IC50 for each item. Keep answers brief.
- Tested on: P388
- PROCEDURE_SUMMARY: Cytotoxicity against vincristine-resistant mouse P388 cells
- Assay type: functional, cell-based
Answers are plain numbers, in µg/mL.

Illustrative cases are given below, each with its answer.
> print(dat)
                            molecule.smiles  target.desc  unit.tag  result.value
1  CC1(C)C(=O)CC[C@]2(C)[C@H]3C[C@@H](O)[C@@]4(C)[C@]5(O)C[C@](C)(C(=O)O)CC[C@]5(C)CC[C@]4(C)C3=CC[C@@H]12         P388     µg/mL            16
2  CC1(C)[C@H](O)CC[C@]2(C)[C@H]3CC=C4[C@@H]5C[C@](C)(C(=O)O)CC[C@]5(C)CC[C@@]4(C)[C@]3(C)CC[C@@H]12         P388     µg/mL            25
3  CC1(C)C(=O)CC[C@]2(C)[C@H]3CC=C4[C@@H]5C[C@](C)(C(=O)O)CC[C@]5(C)CC[C@@]4(C)[C@]3(C)CC[C@@H]12         P388     µg/mL            12

Lab book: IC50 of `CC1(C)C(=O)CC[C@]2(C)C3=C(CC[C@@H]12)[C@@]1(C)CC[C@@]2(C)CC[C@@](C)(C(=O)O)C[C@@]2(O)[C@]1(C)[C@H](O)C3` noted as 10
